- System: CCRF-CEM
- methodNotes: NCI tumour cell line growth inhibition, 48 h
Calls of active or inactive are those of the source. Cut-off read from the data, not from the text of the source: active = GI50 up to about 1.1 µM and inactive = higher.
Response enum: active, inactive

QUERY: Hey, what did the test say about COc1ccc(NC(=S)c2ccoc2C)cc1CC(=O)OC(C)C ?
RESULT: inactive

QUERY: Recorded test outcome, item CC(=O)C1C(=O)C(=O)N(c2ccc([N+](=O)[O-])cc2Cl)C1=O (stereo not given)
RESULT: inactive

QUERY: # lookup: test call for CCN(CCCl)CCNc1c2ccccc2nc2ccc(OC)cc12
RESULT: active

QUERY: Short answer needed: outcome of this test for Cc1c(-c2coc(-c3ccccc3)n2)c(=O)n(-c2ccccc2)n1C ?
RESULT: inactive

QUERY: Identify the outcome logged in this assay for the molecule shown: CN(C)S(=O)(=O)c1nc(Cl)c2nc[nH]c2n1
RESULT: inactive

QUERY: // outcome(item) with item = COc1c(O)c(OC)c2oc(-c3ccc(O)cc3)c(OC)c(=O)c2c1O
RESULT: inactive

QUERY: Per the assay record, what outcome was assigned to CC(C)c1cccc(C(C)C)c1NC(=O)C(=O)C(C(=O)c1ccccc1-c1ccccc1)C1OC(=O)c2ccccc21 (stereo not given) ?
RESULT: inactive

QUERY: Which outcome was entered for the molecule CCOC(=O)c1c(-c2ccc(OC)c(O)c2)c(C#N)c(=S)n(C2OC(CO)C(O)C(O)C2O)c1-c1ccccc1 (stereo not given) in this test?
RESULT: inactive

QUERY: For CSCSCC(CO)NC(=O)/C=C\c1c(C)[nH]c(=O)[nH]c1=O (stereo not given) , which call appears in the assay record?
RESULT: inactive

QUERY: Just curious, what result did Nn1c(-c2ccccc2)nn(C(=O)c2ccccc2)c1=O get here?
RESULT: inactive

###

- Tested on: MDA-N
- methodNotes: NCI tumour cell line growth inhibition, 48 h
Counter-ions that a name gives are not always drawn. The source made the active and inactive calls. No stated cut-off is given here; in the data, active = GI50 up to about 1.1 µM and inactive = higher.
endpointLabel: GI50

The compound COCOC1/C=C/CCCCC2=C(C)C=C(C1)O2 (stereo not given) on MDA-N: GI50 was > 100 µM (inactive)

Observed GI50, MDA-N, COc1ccc(O)c(/C(C)=N/NC(=S)N(C)C)c1 : > 73.3 µM (inactive)

Reported MDA-N GI50 for item CN1C(=O)c2ccccc2NC(=O)C12O[C@@H]2c1cccc(O)c1 (stereo not given in full) was > 100 µM (inactive)

Record CCOC(OCC)[C@@H]1C[C@@H]2N(O[C@H](OC3CCCC3(c3ccccc3)c3ccccc3)[C@H](OC(C)=O)[C@@]2(CC)Cc2ccc(OC)c(OC)c2)O1 (stereo not given in full) ; system MDA-N; GI50 = > 100 µM (inactive)

# GI50 measured on MDA-N for item CC(=O)N(C)c1ccc(Nc2cc(C)nc3ccc4nc[nH]c4c23)cc1 [ACODAZOLE HYDROCHLORIDE] = 10.5 µM (inactive)

// GI50 (MDA-N) for CC(C)(C)n1c(=O)n2c(-c3ccccc3)c(-c3ccccc3)n2c1=O = > 100 µM (inactive)

Here O=C1c2c(O)cccc2C(C2OC(CO)C(O)C(O)C2O)c2cc(CO)cc(O)c21 (stereo not given) was tested on MDA-N, and its GI50 came to > 100 µM (inactive)

# value of GI50, MDA-N, item CCOC(=O)c1c(NC(=S)NCc2ccccc2)sc2c1CCN(C)C2 = > 100 µM (inactive)

Reported GI50 (MDA-N) for entry Cc1cccc(N2CCN(S(=O)(=O)c3ccc(Cl)cc3)C2=N)c1C is > 100 µM (inactive)

Lab entry: MDA-N assay, compound CC1(c2cccs2)CC(c2cccs2)=C(C#N)C(=C(C#N)C#N)N1 (stereo not given) , GI50 = 16.7 µM (inactive)

###

Record form. Attribute: GI50. Fill in for each entry.
- Tested on: NCI-H460
- methodNotes: NCI tumour cell line growth inhibition, 48 h
Active and inactive are the calls of the source. Rule as the data show it: active = GI50 up to about 1.1 µM and inactive = higher.

Measured GI50, CN1CCc2c1nc(-c1ccccc1)c1c2N(C)CC1 : 71.1 µM (inactive)

Query CC1(C)C(O)C[C@]23CCC[C@](C)(C[C@@H](O)C12)C3 (stereo partly drawn) yields GI50 of > 100 µM (inactive)

For record CC12CC3CC(C)(C1)CC(N=[N+]=[N-])(C3)C2 the listed GI50 is > 100 µM (inactive)

Measured GI50 of O=C1c2c(O)cccc2C(C2OC(CO)C(O)C(O)C2O)c2cc(CO)cc(O)c21 (stereo not drawn) : > 100 µM (inactive)

// recorded GI50 for C1C2CC3CC1CC(Nc1nc(NC45CC6CC(CC(C6)C4)C5)nc(NC45CC6CC(CC(C6)C4)C5)n1)(C2)C3 : 66.4 µM (inactive)

Looking up CCCCn1cc(C(=O)O)c(=O)c2c3sccc3ccc21 , I see its GI50 listed as > 100 µM (inactive)

compound O=C(Nc1ccc([N+](=O)[O-])cc1)C1C(=O)C(=O)N(c2ccc([N+](=O)[O-])cc2)C1=O (stereo not drawn) , GI50 observed: 34.5 µM (inactive)

Record COC(=O)CCC(=O)Nc1cc(C)ccc1C . Reported GI50: > 100 µM (inactive)

O=C(c1ccc(F)cc1)c1cccc(C(=O)c2ccc(F)cc2)n1 has a reported GI50 of > 100 µM (inactive)

Value of measured GI50 for the entry CCn1c(SCC(=O)NNC(=S)NC)nc2ccccc2c1=O : 18.6 µM (inactive)

Measured GI50, CC1C2CC(C/C2=N/O)C1(C)C (stereo not drawn) : > 100 µM (inactive)

Reported GI50 ( O=c1c2sc(=S)n(-c3ccc(F)cc3)c2ncn1/N=C/c1ccc(F)cc1F ) = 39.2 µM (inactive)

Reported GI50 of O=[N+]([O-])/C=C/c1cccc(F)c1 : 12.2 µM (inactive)

Value of GI50 reported for the compound C=C1C(=O)O[C@H]2C/C(C)=C/CC[C@@]3(C)O[C@](C)(CC[C@@H]3I)[C@@H](I)C[C@@H]12 is 6.38 µM (inactive)

Per the record, O=c1[nH]c2cccc([N+](=O)[O-])c2c(=O)n1-c1ccc(Cl)cc1 has GI50 of 4.4 µM (inactive)

Record summary for CCc1cccc(C)c1NC(=O)CCc1nnc(S)[nH]1 : reported GI50 = > 100 µM (inactive)

Input COc1cc(/N=N/c2cccc(S(N)(=O)=O)c2)c2ccccc2c1N . Output GI50: 9.98 µM (inactive)

Record summary for O=c1[nH]c(=O)n(C2CC(O)C(CS)O2)cc1F (stereo not drawn) : reported GI50 = 6.87 µM (inactive)

Looking up C=CCNC(=S)OCCCCCCCCCC , I see its GI50 listed as 17.6 µM (inactive)

Consider CCOC1CC2OC(=O)C1C=C2C(=O)OC (stereo not drawn) . Its measured GI50 is 79.3 µM (inactive)

Item: C/C(=N\NS(=O)(=O)c1ccc(C)cc1)C(CN(C)C)C(c1ccccc1)c1c(O)c2ccccc2oc1=O (stereo not drawn) | GI50: > 100 µM (inactive)

Briefly, GI50 measured for CN1C(c2ccccc2)CC(=NO)CC1c1ccccc1 (stereo not drawn) : 60 µM (inactive)

So, Cn1c(S)nnc1-c1csc(-c2ccc(Cl)cc2)n1 ? Its GI50 was 21.3 µM (inactive)

###

- Tested on: EKVX
- methodNotes: NCI tumour cell line growth inhibition, 48 h
Calls of active or inactive are those of the source. No stated cut-off is given here; in the data, active = GI50 up to about 1.1 µM and inactive = higher.
Assign GI50 to each entry below.

Sure, the documented GI50 for CCC(C)C(C(=O)N/N=C1/SCC(=O)N1C)C(=O)N/N=C1/SCC(=O)N1C (configuration not stated) is > 100 µM (inactive)

Please fill in: GI50 reported for O=C(c1ccc(F)cc1)c1cccc(C(=O)c2ccc(F)cc2)n1 = > 100 µM (inactive)

get_value(item= O=[N+]([O-])/C=C/c1cccc(F)c1 , readout=GI50) returns 3.03 µM (inactive)

Record summary for O=C(O)CCC(NC(=O)c1ccc(CNc2nc3ccccc3nc2C(=O)O)cc1)C(=O)O (configuration not stated) : reported GI50 = > 100 µM (inactive)

For this molecule ( Clc1cccc(-c2sc(-c3cccs3)cc2Cc2cccs2)c1 ), measured GI50 is > 10 µM (inactive)

Entry CS(=O)(=O)c1nc(-c2cc3c(c(S(C)(=O)=O)n2)CCC3)cc2c1CCCC2 — recorded GI50 = > 100 µM (inactive)

GI50 reported for this molecule CCN1C=C/C(=C\C=C\c2cc[n+](CC)c3ccccc23)c2ccccc21 : 18.9 µM (inactive)

Sample CCOC(=O)c1c(NC(=S)NCc2ccccc2)sc2c1CCN(C)C2 ; GI50 observed: 78 µM (inactive)

// COc1c(O)c(OC)c2oc(-c3ccc(O)cc3)c(OC)c(=O)c2c1O : GI50 value = 97.5 µM (inactive)

What the record says about COc1cc(/N=N/c2cccc(S(N)(=O)=O)c2)c2ccccc2c1N : GI50 is 13.8 µM (inactive)

Summary for this molecule, Cc1coc2c1[C@@H](O)[C@@]1(C)[C@H](CCC[C@@H]1C)C2 : GI50 is 69 µM (inactive)

For CCOP(=O)(C/C(O)=C1\C(=O)C(CCCCNC(=O)OC(C)(C)C)N(Cc2ccccc2)C1=O)OCC (configuration not stated) the molecule record lists GI50 as > 100 µM (inactive)

GI50 measured on Cc1cc2ccccc2n1CC(=O)NCC(C)C = > 100 µM (inactive)

For c1csc(-c2nn3c(C45CC6CC(CC(C6)C4)C5)nnc3s2)c1 the molecule record lists GI50 as > 100 µM (inactive)

Recorded GI50 (molecule CCOc1cccc(/C=N/N=C2\C(=O)Nc3c(Cl)cc(Cl)cc32)c1O ): 5.97 µM (inactive)

The molecule listed as C/C(=N\NS(=O)(=O)c1ccc(C)cc1)C(CN(C)C)C(c1ccccc1)c1c(O)c2ccccc2oc1=O (configuration not stated) has a reported GI50 of > 100 µM (inactive)

Lab book: GI50 of O=C(c1cc2ccccc2o1)N(Cc1ccccc1)c1ccccc1 noted as 27 µM (inactive)

Given item Nn1c(-c2ccccc2)nn(C(=O)c2ccccc2)c1=O , the value recorded as its GI50 is > 100 µM (inactive)

Recorded result, O=C(O)C(Cc1c[nH]c2ccccc12)N1C(=O)c2ccccc2C1=O (configuration not stated) , GI50: > 100 µM (inactive)

Reported GI50 for NC(=O)C(=O)C(c1ccccc1)S(=O)(=O)Cc1ccccc1 (configuration not stated) was > 100 µM (inactive)

Per the records, this molecule ( N#Cc1nnn(C2CCCCC2)c1O ) has GI50 equal to > 100 µM (inactive)

Kindly note the recorded GI50 for CCOC(=O)c1c(-c2ccc(OC)c(O)c2)c(C#N)c(=S)n(C2OC(CO)C(O)C(O)C2O)c1-c1ccccc1 (configuration not stated) , which is 1.6 µM (inactive)
